- Test system: Plasmodium falciparum Sir2 (PF13_0152, Sir2A)
- Measurement protocol: pfSir2 binders on small-molecule microarrays, primary screen, biochemical, small-molecule microarray, 635 nm fluorescence (AID 1098);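 further: score merges spot fluorescence intensity with its signal-to-noise ratio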
- Cond: small-molecule microarray binding, fluorescence 635 nm; higher = more signal
Catalogue of composite z-score values

COCC1=C2[C@@H](CCc3ccccc3)OB(O)C[C@@H]2n2c(=O)n(-c3ccccc3)c(=O)n2C1 | 0.48
O=C1[C@H]2[C@H]3[C@H](O)[C@H](O)CC(=NOC[C@@H](O)COCc4ccco4)[C@H]3CC[C@H]2C(=O)N1c1cccc(Oc2ccccc2)c1 | 0.846
COC(=O)CC=C[C@@H](C)[C@H](OC)c1ccccc1Br | -0.581
O=C1[C@H]2[C@H]3[C@H](O)[C@H](O)CC(=NOCc4ccccc4)[C@H]3CC[C@H]2C(=O)N1c1ccc(F)cc1F | -0.183
CCOC(=O)CCN1C(=O)[C@H]2[C@H]3[C@H](O)[C@H](O)CC(=NOC[C@@H](O)COCc4ccco4)[C@H]3CC[C@H]2C1=O | 0.413
COC(=O)[C@H](C)NC(=O)CCC1CC(OC(=O)NCc2cccc3ccccc23)CC2(CCCC(COC(=O)NCC3CCCCC3)O2)O1 (stereo partly drawn) | 0.534
CC(C)C[C@@H]1NC(=O)[C@H]2C[C@@H](C(=O)NCCCCCCN(C)C)[C@@H](c3cccc(OCCO)c3)N2C1=O | 1.5

Kindly consider the entry below.
Fill in the blank: the reported composite z-score of O=C1[C@H]2[C@H]3[C@H](O)[C@H](O)CC(=NOCc4ccccc4)[C@@H]3CC[C@H]2C(=O)N1Cc1ccccc1 is ____.
-0.935

###

- Measured on: Left-right determination factor 2 (Homo sapiens)
- Measurement protocol: LEFTY2 binders on small-molecule microarrays, primary screen, biochemical, small-molecule microarray, 635 nm fluorescence scan (AID 1110)
- Cond: LEFTY2 binding, higher = more signal
List of composite z-score values.
Please give only the number in your answer, with no unit.

CCCNC(=O)[C@@H]1c2ccccc2C(=O)N(Cc2ccccc2Cl)[C@H]1c1ccc(CO)cc1 | 0.531
C[C@@H](c1ccccc1)N1C(=O)[C@H]2[C@H]3[C@H](O)[C@H](O)CC(=NOC[C@@H](O)COCc4ccco4)[C@@H]3CC[C@H]2C1=O | -0.433
CC(C)[C@H](NC(=O)OC(C)(C)C)[C@@H](O)CC(=O)OC(C)(C)C | -0.428
O=C1O[C@@H](c2ccccc2)[C@@H](c2ccccc2)N2[C@@H](c3ccccc3OCCO)[C@]3(C(=O)Nc4ccc(C#CCCO)cc43)[C@@H](C(=O)O)[C@H]12 | -0.28

Report composite z-score for CO[C@H]1O[C@H](CO)[C@@H](OC(=O)Nc2ccc(C#N)cc2)[C@H](OC(=O)c2cc3ccccc3[nH]2)[C@H]1OC(=O)c1cc2ccccc2[nH]1 please.
0.339

// returns reported composite z-score for input C=CCOC(=O)[C@H]1[C@@H]2C(=O)O[C@@H](c3ccccc3)[C@@H](c3ccccc3)N2[C@@H](c2ccc(OCCOC(=O)[C@H]3C[C@H]4C(=O)N5CCC[C@H]5C(=O)N4[C@H]3c3cccc(OCCO)c3)cc2)[C@]12C(=O)Nc1ccc(I)cc12
1.29
